Catalogue of inhibition at 1 µM readings, one per entry.
Target: human recombinant dopamine D2L receptor (Homo sapiens)
Construct: expressed in transfected cells; host or cells: CHO
Sequence (P14416 whole entry): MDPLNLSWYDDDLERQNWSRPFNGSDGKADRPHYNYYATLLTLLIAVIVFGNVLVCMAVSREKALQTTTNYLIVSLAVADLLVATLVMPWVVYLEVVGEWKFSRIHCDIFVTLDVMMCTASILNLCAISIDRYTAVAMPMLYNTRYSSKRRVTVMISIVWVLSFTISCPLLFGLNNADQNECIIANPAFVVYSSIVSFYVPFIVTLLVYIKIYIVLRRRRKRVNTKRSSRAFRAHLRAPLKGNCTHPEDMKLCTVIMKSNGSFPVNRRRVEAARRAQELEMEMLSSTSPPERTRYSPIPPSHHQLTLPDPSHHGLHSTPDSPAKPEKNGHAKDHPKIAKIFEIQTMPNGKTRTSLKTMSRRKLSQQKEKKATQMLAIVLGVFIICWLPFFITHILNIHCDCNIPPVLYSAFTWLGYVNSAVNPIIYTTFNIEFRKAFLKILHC
Experiment: Dopamine D2L radioligand binding ([3H]Spiperone)
Settings: compound at 1 μM; read-out: Percentage inhibition of ligand binding, Dopamine (1 μM) D2L
measurement_label: inhibition at 1 µM (%)

INSERT INTO results (substance_smiles, measurement_label, units_symbol, reading) VALUES
  ('Cc1cc(C#Cc2ccncc2)c2c(c1)c1c(n2C)CCN(C)C1', 'inhibition at 1 µM', '%', 1),
  ('C/C(=C\c1cc(C)cc2c3c(n(C)c12)CCN(C)C3)c1ccncc1', 'inhibition at 1 µM', '%', 28),
  ('Cc1cc(CCc2ccc(C)nc2)c2[nH]c3c(c2c1)CN(C)CC3', 'inhibition at 1 µM', '%', 6),
  ('CN1CCc2[nH]c3c(NCc4ccncc4)cccc3c2C1', 'inhibition at 1 µM', '%', 5),
  ('Cc1cc(-c2ccc(F)cc2)c2c(c1)c1c(n2C)CCN(C)C1', 'inhibition at 1 µM', '%', 5);

Recorded values, source patent US9034865B2.
